Target: recombinant human glucokinase (beta cell isoform, His-tagged) (Homo sapiens, UniProt P35557)
Construct: Full-length glucokinase (beta cell isoform) was His-tagged at the N-terminus; His tag (N); made in house; host or cells: E. coli BL21(DE3), pBCGK vector
Sequence (P35557 whole entry, canonical isoform): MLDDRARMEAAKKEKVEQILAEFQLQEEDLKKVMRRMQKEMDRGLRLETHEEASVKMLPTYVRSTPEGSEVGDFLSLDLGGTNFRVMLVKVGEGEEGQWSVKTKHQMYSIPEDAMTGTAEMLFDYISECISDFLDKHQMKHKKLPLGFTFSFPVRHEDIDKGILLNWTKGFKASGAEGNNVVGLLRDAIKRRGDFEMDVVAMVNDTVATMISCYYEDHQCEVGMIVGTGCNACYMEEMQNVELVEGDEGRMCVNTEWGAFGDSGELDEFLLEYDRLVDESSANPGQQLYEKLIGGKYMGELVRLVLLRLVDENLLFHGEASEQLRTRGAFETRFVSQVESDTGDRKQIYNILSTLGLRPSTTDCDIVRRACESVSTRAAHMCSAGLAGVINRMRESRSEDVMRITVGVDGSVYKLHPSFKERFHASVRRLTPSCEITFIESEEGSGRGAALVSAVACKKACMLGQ
Assay: Assay 1: activator potency and maximum activation at 5 mM glucose (coupled PK/LDH, NADH depletion, A340)
Format: biochemical
Details: % Maximum Activation=(Va/Vo−1)×100
readout: Emax (%)
One number for each entry, in %.

[[record]]
compound_structure = "O=C(O)c1ccc(NC(=O)[C@H](CC2CCCC2)n2cc(C(F)(F)F)ncc2=O)nc1"
readout = "Emax"
unit_tag = "%"
recorded_value = 117


# evaluate next
The reported Emax of the compound Cc1ccc(NC(=O)[C@H](CC2CCOCC2)n2cc(C(F)(F)F)ncc2=O)nc1 was 100

---

Molecular target: recombinant human glucokinase (beta cell isoform, His-tagged) (Homo sapiens)
Construct: Full-length glucokinase (beta cell isoform) was His-tagged at the N-terminus; His tag (N); made in house; host or cells: E. coli BL21(DE3), pBCGK vector
Experiment: Assay 1: activator potency and maximum activation at 5 mM glucose (coupled PK/LDH, NADH depletion, A340)
Format: biochemical
Conditions: glucokinase activation, pH 7.1, room temperature
Please provide measured EC50 for the entries that follow.
Answers are plain numbers, in µM.

[[record]]
molecule = "O=C(O)c1ccc(NC(=O)[C@H](CC2CCCC2)n2cc(C(F)(F)F)ncc2=O)nc1 [Example 2]"
target_or_system = "recombinant human glucokinase (beta cell isoform, His-tagged) (Homo sapiens)"
unit_tag = "µM"
recorded_value = 0.453


Could you now consider this next molecule?
Lab note: Cc1ccc(NC(=O)[C@H](CC2CCOCC2)n2cc(C(F)(F)F)ncc2=O)nc1 [Example 1] gave EC50 of 64

---

Target: recombinant human glucokinase (Homo sapiens, UniProt P35557)
Construct: His tag
Sequence (P35557 whole entry): as the sequence (P35557 whole entry, canonical isoform) above
Assay: Assay 2: activator potency in a matrix assay at multiple glucose concentrations (22 compound x 16 glucose concentrations)
Details: concentration of compound affording a 50% reduction in the enzyme's Km for glucose, read-out: Intrinsic EC50
readout: pEC50
Answers are plain numbers, as −log10 of the molar value.

# annotated cases, reported pEC50 shown
[[record]]
molecule = "CC(C)C[C@@H](C(=O)Nc1ccc(C(=O)O)cn1)n1cc(C(F)(F)F)ncc1=O [Example 7]"
readout = "pEC50"
recorded_value = 5.48

[[record]]
molecule = "O=C(O)c1ccc(NC(=O)[C@H](CC2CCOCC2)n2cc(C(F)(F)F)ncc2=O)nc1 [Example 6]"
readout = "pEC50"
recorded_value = 5.05

[[record]]
molecule = "O=C(O)c1ccc(NC(=O)[C@H](CC2CCC2)n2cc(C(F)(F)F)ncc2=O)nc1 [Example 9]"
readout = "pEC50"
recorded_value = 5.90


Please examine the following record next.
// sample O=C(O)Cc1ccc(NC(=O)[C@H](CC2CCCC2)n2cc(C(F)(F)F)ncc2=O)nc1 [Example 8] , its pEC50 was 5.64
